Assay: Solubility of C1100 Form I in pharmaceutically-acceptable solvents at 20° C. (HPLC of saturated solutions)
Assay type: physicochemical
Details: organic solvent or mixture, thermodynamic from solid, Form I polymorph, solvent Dimethylformamide, 4 hours equilibration
Method: In each case, about 25 mg of drug substance was allowed to equilibrate with 250 μL of solvent over 4 hours. The resulting saturated solutions were filtered and analysed by HPLC.

# compound, solubility at 4 h
rows = [
    ("CCS(=O)(=O)c1ccc2oc(-c3ccc4ccccc4c3)nc2c1 [C1100]", "> 33.8 mg/mL"),
]

###

Assay: Solubility of C1100 Form I in pharmaceutically-acceptable solvents at 20° C. (HPLC of saturated solutions)
Format: physicochemical
Conditions: organic solvent or mixture, thermodynamic from solid, Form I polymorph, solvent 1-butanol, 4 hours equilibration
Procedure: In each case, about 25 mg of drug substance was allowed to equilibrate with 250 μL of solvent over 4 hours. The resulting saturated solutions were filtered and analysed by HPLC.

# compound, measure_unit, solubility at 4 h
data = [
    ("CCS(=O)(=O)c1ccc2oc(-c3ccc4ccccc4c3)nc2c1 [C1100]", "µg/mL", 350),
]
